# Experimental system: T1, human BDCA2 (human, UniProt Q8WTT0 1-213)
# T1 construct: whole, on cells; also called hBDCA2; Blood dendritic cell antigen 2
# T1 sequence (looked up): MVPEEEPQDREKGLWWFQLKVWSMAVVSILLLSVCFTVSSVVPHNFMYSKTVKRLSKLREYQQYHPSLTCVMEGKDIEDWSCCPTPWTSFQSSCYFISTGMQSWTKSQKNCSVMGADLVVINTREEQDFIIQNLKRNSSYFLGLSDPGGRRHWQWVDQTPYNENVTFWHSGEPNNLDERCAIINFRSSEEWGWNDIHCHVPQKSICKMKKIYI
# Test description: FACS, CHOK1-humanBDCA2 cells
Measurement name: pEC50
Scale explanation: pEC50 corresponds to minus log10 of a concentration expressed in moles per litre.

Req: What pEC50 value was documented for this binder, Hu005-03 (antibody, IgG1, V domains shown, Humanized IgG1; also called hu005-03(BM4)) VH: QVQLQESGPGLVKPSETLSLTCTVSGGSITNYGVHWIRQPPGKGLEWIGVIWSGESTDYDAAFISRVTISKDNSKNQVSLKLSSVTAADTAVYYCARRRSHYYGYVMDYWGQGTTVTVSS VL: DIVLTQSPASLAVSPGQRATITCKASQSIDYDAIGYLNWYQQKPGQPPKLLIYAASNLESGVPARFSGSGSGTDFTLTINPVEANDTANYYCQQSNEDPPTFGQGTKLEIK ?
Resp: 8.68
